Measured values drawn from BindingDB's records for doi:10.1021/jm020335m for this set.

Experiment: Inhibition of concanavalin A stimulated rat splenocyte proliferation
pEC50: −log10 of the molar value.
MEASURE: pEC50

a: C=CCC1Oc2ccc(O)c(OC)c2-c2ccc3c(c21)C(C)=CC(C)(C)N3 (stereo unspecified)
b: C=CCC1Oc2cccc(NC)c2-c2ccc3c(c21)C(C)=CC(C)(C)N3 (stereo unspecified)
Which of the two items, a and b , has the greater recorded pEC50? Pick one and reply with its label.
b
(b: 7.32, a: 7.11)

P: C=CCC1Oc2cccc(C=C)c2-c2ccc3c(c21)C(C)=CC(C)(C)N3 (stereo unspecified)
Q: C=CCC1Oc2cccc(OC)c2-c2ccc3c(c21)C(C)=CC(C)(C)N3 (stereo unspecified)
Of P and Q , whose reported pEC50 is numerically smaller? Pick one and reply with its label.
P
